Attribution: the supplement of paper PMC10567573

Please go through the items and note down their protein stability index.
B1: FBF1 (parent)
chain: FGDSPKAEKRQIGDQEGPRPARST

- Variants of: B1
- test: protein stability index of a GFP-peptide fusion (GPS, HEK-293T) (PSI 1-6); higher = more stable;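 note: lentivirally expressed fusions sorted by FACS into six bins by GFP to DsRed ratio, PSI derived from sequencing read proportions per bin multiplied by bin number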
- condition details: c terminus: a fixed tail appended
One number for each entry.

Recorded results for 4 variants are shown here.
Q15T    4.96
D14K    4.5
G17F    4.57
G17Y    4.68

Required: protein stability index, one value per variant below.
1. K9P
2. E16R
3. G17N

result:
[5.54, 5.02, 5.06]

Required: protein stability index, one value per variant below.
1. K6D
2. I12T
3. G13R

result:
1: 5.22; 2: 4.32; 3: 5.09

Required: protein stability index, one value per variant below.
1. S4Q
2. A7D
3. A21G
4. T24N
5. S23Y
6. D14N

result:
1. 4.75
2. 5.53
3. 5.73
4. 5.34
5. 5.37
6. 5.15

Required: protein stability index, one value per variant below.
1. P20S
2. K9E
3. A7G

result:
1: 5.02; 2: 5.1; 3: 4.89

Required: protein stability index, one value per variant below.
1. R10Q
2. G2K
3. Q11E

result:
1: 4.86; 2: 4.72; 3: 5.33
